Test target: uPAR-expressing HEC-265 human endometrial adenocarcinoma cells (Homo sapiens, UniProt Q03405)
Sequence (Q03405 23-335): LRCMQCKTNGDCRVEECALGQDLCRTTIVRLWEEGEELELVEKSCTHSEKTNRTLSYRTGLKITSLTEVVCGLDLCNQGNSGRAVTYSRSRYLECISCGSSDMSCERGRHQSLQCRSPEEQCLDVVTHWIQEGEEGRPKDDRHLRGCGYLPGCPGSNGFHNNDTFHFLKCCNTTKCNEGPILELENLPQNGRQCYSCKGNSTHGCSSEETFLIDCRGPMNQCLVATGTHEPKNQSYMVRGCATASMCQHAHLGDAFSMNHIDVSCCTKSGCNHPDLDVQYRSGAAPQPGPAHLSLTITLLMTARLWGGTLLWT
Where a SMILES comes first, the peptide text is derived from it. Bridges are numbered along the chain shown (N, C = ends). [ ]: non-standard residue; d: D form. The star is where a group is joined. DOTA = O=C(O)CN1CCN(CC(=O)O)CCN(CC(=O)*)CCN(CC(=O)O)CC1; Pro(4R-NH2) = N[C@H]1CN[C@H](C(=O)O)C1; Hyp = O=C(O)[C@@H]1C[C@@H](O)CN1; Pentanoyl(4-Me) = CC(C)CCC(=O)*; Cit = NC(=O)NCCC[C@H](N)C(=O)O; αMeL = CC(C)C[C@](C)(N)C(=O)O; Phg = N[C@H](C(=O)O)c1ccccc1; Nva = CCC[C@H](N)C(=O)O; Pentanoyl = CCCCC(=O)*; Aib = CC(C)(N)C(=O)O

{"columns": ["Molecule", "IC50"],
 "data": [
  ["CCCCC(=O)N[C@H]1CSSC[C@@H](C(N)=O)NC(=O)[C@H](CCC)NC(=O)[C@H]([C@@H](C)CC)NC(=O)[C@@H]2C[C@@H](O)CN2C(=O)[C@@H]2C[C@@H](O)CN2C(=O)[C@H](Cc2ccccc2)NC(=O)[C@H](Cc2ccc(O)cc2)NC(=O)[C@H](CCCCNC(=O)CN2CCN(CC(=O)O)CCN(CC(=O)O)CCN(CC(=O)O)CC2)NC(=O)[C@H]([C@@H](C)O)NC1=O [UPAR-135] (Pentanoyl-CTK(DOTA)YF[Hyp][Hyp]I[Nva]C-NH2; disulfide 1-10)", "≤ 10 nM"],
  ["CC[C@H](C)[C@@H]1NC(=O)[C@@H](C)NC(=O)[C@@H]2CCCN2C(=O)[C@H](Cc2ccccc2)NC(=O)[C@H](Cc2ccc(O)cc2)NC(=O)C(C)(C)NC(=O)[C@H](CCCNC(N)=O)NC(=O)[C@@H](NC(=O)CCC(C)C)CSSC[C@@H](C(N)=O)NC(=O)[C@H](CC(C)C)NC1=O [UPAR-269] ({Pentanoyl(4-Me)}-C[Cit][Aib]YFP[dA]ILC-NH2; disulfide 1-10)", "12.6 to 31.6 nM"],
  ["CCCCC(=O)N[C@H]1CSSC[C@@H](C(N)=O)NC(=O)[C@H](CCC)NC(=O)[C@H](c2ccccc2)NC(=O)[C@@H]2C[C@@H](O)CN2C(=O)[C@@H]2CCCN2C(=O)[C@H](Cc2ccccc2)NC(=O)[C@H](Cc2ccc(O)cc2)NC(=O)[C@H](CCC(N)=O)NC(=O)[C@H](CCCNC(=N)N)NC1=O [UPAR-437] (Pentanoyl-CRQYFP[Hyp][Phg][Nva]C-NH2; disulfide 1-10)", "≤ 10 nM"],
  ["CC[C@H](C)[C@@H]1NC(=O)[C@@H]2C[C@@H](N)CN2C(=O)[C@@H]2CCCN2C(=O)[C@H](Cc2ccccc2)NC(=O)[C@H](Cc2ccc(O)cc2)NC(=O)[C@H](CCC(N)=O)NC(=O)[C@H](CCCNC(N)=O)NC(=O)[C@@H](NC(=O)CCC(C)C)CSSC[C@@H](C(N)=O)NC(=O)[C@H](CC(C)C)NC1=O [UPAR-295] ({Pentanoyl(4-Me)}-C[Cit]QYFP[Pro(4R-NH2)]ILC-NH2; disulfide 1-10)", "≤ 10 nM"],
  ["CCC[C@@H]1NC(=O)[C@H]([C@@H](C)CC)NC(=O)[C@@H]2C[C@@H](O)CN2C(=O)[C@@H]2CCCN2C(=O)[C@H](Cc2ccccc2)NC(=O)[C@H](Cc2ccc(O)cc2)NC(=O)[C@H](CCC(N)=O)NC(=O)[C@H](CCCNC(=N)N)NC(=O)[C@@H](NC(=O)[C@](C)(CC(C)C)NC(C)=O)CSSC[C@@H](C(N)=O)NC1=O [UPAR-485] (Ac-[αMeL]CRQYFP[Hyp]I[Nva]C-NH2; disulfide 2-11)", "≤ 10 nM"]
]}
